- target-entity: LC8 (UniProt Q24117 1-89)
- Sequence (Q24117 whole entry): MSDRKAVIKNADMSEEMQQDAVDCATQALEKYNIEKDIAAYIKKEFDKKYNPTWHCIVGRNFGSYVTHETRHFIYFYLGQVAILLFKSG
- assay-notes: ITC
assay-endpoint: Kd (nM)
The reply should be a number in nM, with the unit left off.

Input: Bench note: what Kd did Chica_(410–478) (domain or fragment, human, UniProt Q9H4H8 410-478, looked up) QTSITTACAGTQTAVITRIASSQTTIWSRSTTTQTDMDENILFPRGTQSTEGSPVSKMSVSRSSSLKSS show?
Output: 400

The origin of these recorded values is paper PMC6995037.
